B1: F1*; the commonest letter at each place (parent)
chain: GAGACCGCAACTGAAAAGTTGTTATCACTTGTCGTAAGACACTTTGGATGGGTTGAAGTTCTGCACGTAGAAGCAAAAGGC

# Variants of: B1
# ASSAY_NAME: fraction ligated after 30 min (ligated reads / total reads); higher = more ligase activity
# REPORTED_CONDITIONS: with F1*sub RNA substrate (template-directed ligation), 42 °C
MEASURE_NAME: fraction ligated
Answer with a bare number; do not write a unit.

Worked examples, 3 variants total:
VAR | fraction ligated
C26T G50T | 0.238
T30G G55A | 0.846
A48G G55T | 0.686

q: Retrieve fraction ligated measured for G34A T49A and print it.
a: 0.786

q: Retrieve fraction ligated measured for A37G A57G and print it.
a: 0.859

q: Retrieve fraction ligated measured for T30C A39G and print it.
a: 0.782
